- Test system: Amaranthus retroflexus (AMARE)
- TEST_DESCRIPTION: Post-emergence herbicidal activity, AMARE
- Format: in vivo
- EXPERIMENTAL_PARAMETERS: % visual injury compared to treatment control, 7 days after treatment
Reported Post-emergence (100 ppm) AMARE, percentage control values follow for various compounds
Value expressed in %; do not type the unit.

Study these solved cases before continuing.
CC(=O)NS(=O)(=O)c1cc(-c2c(F)c(F)c(F)c(F)c2F)c(F)cc1Cl	88
CN(C)C(=O)NS(=O)(=O)c1cc(-c2c(F)c(F)c(F)c(F)c2F)c(F)cc1Cl	33

Now look at this one.
Prompt line: Post-emergence (100 ppm) AMARE, percentage control for C[C@H](Sc1cc(-c2c(F)c(F)c(F)c(F)c2F)c(F)cc1Cl)C(=O)NCCC(=O)O ?
Response line: 100
